# Tested on: U2OS
# Experiment: cell viability relative to DMSO; higher = less toxic
# Particulars: 72 h; 1000 nM
Readout: cell viability (%)
Numbers only, in %.

// below: answered compounds
[[record]]
compound = "CSc1ccccc1Nc1nc(N2CCNCC2)nc2c(NCC3CC3)ncnc12"
observed_value = 98.2

[[record]]
compound = "O=C(/C=C/c1cccnc1)c1ccncc1"
observed_value = 99

[[record]]
compound = "N#Cc1ccc2[nH]cc(CCCCN3CCN(c4ccc5oc(C(N)=O)cc5c4)CC3)c2c1"
observed_value = 101

[[record]]
compound = "CCCCCCCCCCC[C@@H](C[C@@H]1OC(=O)[C@H]1CCCCCC)OC(=O)[C@H](CC(C)C)NC=O"
observed_value = 105

[[record]]
compound = "CNCCCC1(c2ccccc2)OC(C)(C)c2ccccc21 (configuration not stated)"
observed_value = 99.4

[[record]]
compound = "N=C(N)NCCC[C@H](NC(=O)[C@@H]1CCCN1C(=O)[C@@H]1CSSC[C@H](N)C(=O)N[C@@H](Cc2ccc(O)cc2)C(=O)N[C@@H](Cc2ccccc2)C(=O)N[C@@H](CCC(N)=O)C(=O)N[C@@H](CC(N)=O)C(=O)N1)C(=O)NCC(N)=O"
observed_value = 97.8


// input: 8 compounds below; output: cell viability for each
1. CCOc1cccc(NC(=O)c2ccc(N3CCCC3)c(C(F)(F)F)c2)c1
2. Clc1cccc(C(c2ccc3[nH]cnc3c2)n2ccnc2)c1 (configuration not stated)
3. CC(C)(C)c1ccc(C(=O)Nc2cn3cc(-n4ccnc4)ccc3n2)cc1
4. CCCN(CCC)C(=O)Cc1c(-c2ccc(Cl)cc2)nc2ccc(Cl)cn12
5. CC(C)[C@@H](C)/C=C/[C@@H](C)[C@H]1CC[C@H]2C3=CC=C4C[C@@H](O)CC[C@]4(C)[C@H]3CC[C@]12C
6. Cn1cc(C2=C(c3cn(C4CCN(Cc5ccccn5)CC4)c4ccccc34)C(=O)NC2=O)c2ccccc21
7. CNC(=S)C1(c2ccccn2)CCCS1 (configuration not stated) [picartamide]
8. COc1nc(N)nc2c1ncn2[C@@H]1O[C@H](CO)[C@@H](O)[C@@H]1O

Result:
1: 99.1; 2: 93.9; 3: 98.8; 4: 104; 5: 94.7; 6: 97.4; 7: 99.4; 8: 95.6

###

Field: cell viability. Provide a value for each of the compounds that follow.
# Tested on: HepG2
# Experiment: cell viability relative to DMSO; higher = less toxic
# Particulars: 72 h; 1 nM
Give bare numbers, in %.

For orientation, consider the following solved cases.
[[record]]
compound = "CCCCOCCOc1nc(-c2ccc(C(=O)O)c(F)c2)sc1C"
target_or_system = "HepG2"
observed_value = 97.5

[[record]]
compound = "NC(=O)CN1CC[C@@H](NC(=O)[C@@H]2CCCN2)C1=O [PAOPA]"
target_or_system = "HepG2"
observed_value = 89.1

[[record]]
compound = "C[C@H]1[C@H](OC(=O)CCC(=O)O)O[C@@H]2O[C@@]3(C)CC[C@H]4[C@H](C)CC[C@@H]1[C@@]24OO3 [artesunate]"
target_or_system = "HepG2"
observed_value = 91.9

[[record]]
compound = "COc1cccc([C@@H](C)NCCCc2ccccc2Cl)c1 [tecalcet]"
target_or_system = "HepG2"
observed_value = 92.9

[[record]]
compound = "CN(C)C(=N)NC(=N)N [metformin]"
target_or_system = "HepG2"
observed_value = 93.4

[[record]]
compound = "C[C@H](Nc1cc2c(-c3ccc4c(c3)OCO4)noc2cn1)c1ccccc1 [TC-S-7005]"
target_or_system = "HepG2"
observed_value = 106

[[record]]
compound = "CN(C)c1ccc2c(c1)Sc1cc(N(C)C)ccc1N2 [leucomethylene-blue]"
target_or_system = "HepG2"
observed_value = 93.1

[[record]]
compound = "CN1C(=O)N(c2cc(Cl)cc(Cl)c2)C(=O)[C@]12CN(c1ccc(C(=O)O)cn1)C[C@H]2c1ccc(C#N)cc1"
target_or_system = "HepG2"
observed_value = 104


Request: Looking for the measured cell viability of N[C@@H](C(=O)N[C@@H]1C(=O)N2C(C(=O)O)=C(Cl)CS[C@H]12)c1ccccc1 [cefaclor] , can you help?
Result: 96.4
